# ASSAY PROCEDURE: protein stability index of a GFP-peptide fusion (yeast GPS) (PSI 1-4); higher = more stable; sorted into four equal gates, so the index is relative within each strain
# SETTINGS: doa10∆
MEASURED METRIC: protein stability index

AYRTDVIQALGGIETIL [PRP8] = 1.44

Reported protein stability index, sequence IVDDKQEMIDILETIFR [DIB1] : ____ 2.98

Would you mind telling me what protein stability index value was observed for ILLSHHRASPADVSIKS [POP5] ? 2.79

Which value of protein stability index has been reported for RSRKTVKAQRPITGASL [RPL24A] in the records? 3.34

# query: protein stability index of entry LTKAQKYLDQVLDHQRA [RPL17B] 3

Could you share which protein stability index value was measured for KIHLYEKKLEDYCRILS [YGL172W/NUP49] ? 1.54

Which protein stability index value belongs to RMRNRALREMRKSDQQD [POP1] ? 3.61

Look up protein stability index for this sequence: KRSDLTGANSIYSVEKK [UBP6] 3.09

Bench note: what protein stability index did KERLVRDKKEKKQAQKQ [SMB1] show? 3.25

Please look up its protein stability index: NNETEQLKAEEKKILNQ [SMC1] 3.11

Which measured protein stability index value corresponds to EISKKDFVRKGGLQKGK [SIR3] ? 2.38

Find the recorded protein stability index belonging to FKMNEIVPLHSPFLMGH [SEC65] and report it. 2.71

Hey, just so you know, these numbers are from the supplement of paper PMC9732359.
